molecular target: UniProtKB P49137; assay: Kinase Selectivity Assay (CEREP, HTRF); assay type: biochemical; details: read-out: % Inhibition at 10 μM Concentration, MAPKAPK2
Sequence (P49137 whole entry): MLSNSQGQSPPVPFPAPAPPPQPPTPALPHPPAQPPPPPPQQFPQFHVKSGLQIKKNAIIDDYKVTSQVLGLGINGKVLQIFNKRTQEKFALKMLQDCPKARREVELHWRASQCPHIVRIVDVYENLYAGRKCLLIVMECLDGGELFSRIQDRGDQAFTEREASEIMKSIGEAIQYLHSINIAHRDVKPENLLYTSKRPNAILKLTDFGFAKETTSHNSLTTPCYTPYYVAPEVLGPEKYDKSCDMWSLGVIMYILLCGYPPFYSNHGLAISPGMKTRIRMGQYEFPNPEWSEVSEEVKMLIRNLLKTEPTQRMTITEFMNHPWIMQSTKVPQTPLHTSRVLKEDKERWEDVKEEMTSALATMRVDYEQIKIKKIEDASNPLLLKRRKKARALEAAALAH
Catalogue of inhibition at 10 µM readings, one per entry.
Answer with a number only, understood to be in %.

Quick one: give measured inhibition at 10 µM for O=C1Nc2ccccc2/C1=C\c1ccc2cn[nH]c2c1
0

###

target: IRK (InsR) (Homo sapiens, UniProt P06213); test: Kinase Selectivity Assay (CEREP, HTRF); assay type: biochemical; details: read-out: % Inhibition at 10 μM Concentration, IRK (InsR)
Sequence (P06213 28-1382): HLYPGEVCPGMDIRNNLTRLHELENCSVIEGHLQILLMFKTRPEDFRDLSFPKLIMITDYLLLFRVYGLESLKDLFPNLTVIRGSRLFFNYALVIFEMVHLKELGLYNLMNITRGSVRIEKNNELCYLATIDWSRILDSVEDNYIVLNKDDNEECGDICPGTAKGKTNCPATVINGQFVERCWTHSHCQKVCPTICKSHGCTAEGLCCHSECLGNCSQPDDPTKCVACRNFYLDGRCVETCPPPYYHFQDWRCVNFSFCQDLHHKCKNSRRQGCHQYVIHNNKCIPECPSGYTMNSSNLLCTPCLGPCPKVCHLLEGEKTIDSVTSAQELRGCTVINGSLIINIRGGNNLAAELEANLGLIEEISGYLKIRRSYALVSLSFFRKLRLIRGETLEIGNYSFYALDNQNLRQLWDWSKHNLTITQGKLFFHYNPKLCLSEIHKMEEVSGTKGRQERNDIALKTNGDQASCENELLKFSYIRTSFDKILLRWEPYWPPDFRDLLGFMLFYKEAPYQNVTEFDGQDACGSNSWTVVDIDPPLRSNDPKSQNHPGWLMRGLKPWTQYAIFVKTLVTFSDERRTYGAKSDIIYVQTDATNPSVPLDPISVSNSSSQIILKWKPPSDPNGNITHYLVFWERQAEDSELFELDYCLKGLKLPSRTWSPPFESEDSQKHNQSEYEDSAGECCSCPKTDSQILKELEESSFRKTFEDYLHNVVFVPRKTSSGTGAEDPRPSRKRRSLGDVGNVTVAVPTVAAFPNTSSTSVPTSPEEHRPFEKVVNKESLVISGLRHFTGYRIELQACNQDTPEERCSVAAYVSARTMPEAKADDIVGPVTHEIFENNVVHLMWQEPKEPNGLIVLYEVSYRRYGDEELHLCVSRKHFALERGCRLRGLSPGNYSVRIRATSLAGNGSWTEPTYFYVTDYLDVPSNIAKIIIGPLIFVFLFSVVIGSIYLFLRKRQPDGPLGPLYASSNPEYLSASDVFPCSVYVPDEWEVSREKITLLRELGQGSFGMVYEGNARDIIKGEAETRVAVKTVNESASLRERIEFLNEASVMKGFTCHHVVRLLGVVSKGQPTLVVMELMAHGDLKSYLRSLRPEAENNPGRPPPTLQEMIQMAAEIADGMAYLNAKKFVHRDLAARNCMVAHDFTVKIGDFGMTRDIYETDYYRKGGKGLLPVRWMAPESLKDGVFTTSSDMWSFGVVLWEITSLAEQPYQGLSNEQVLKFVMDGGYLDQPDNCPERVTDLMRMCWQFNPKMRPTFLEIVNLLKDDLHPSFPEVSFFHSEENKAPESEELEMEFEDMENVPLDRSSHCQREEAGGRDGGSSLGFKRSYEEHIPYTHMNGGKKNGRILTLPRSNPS
Catalogue of inhibition at 10 µM readings, one per entry.
Answer with a number only, understood to be in %.

Here's what some known entries look like.
Quick one: give measured inhibition at 10 µM for O=C1Nc2ccccc2/C1=C\c1ccc2c(/C=C/c3ccccc3Cl)n[nH]c2c1 [Example A60]
6

Quick one: give measured inhibition at 10 µM for O=C1Nc2ccccc2C1=Cc1ccc2c(/C=C/c3ccccn3)n[nH]c2c1 (mixture of isomers) [Example A41]
34

Quick one: give measured inhibition at 10 µM for O=C1Nc2ccccc2/C1=C\c1ccc2cn[nH]c2c1 [Example A5]
12

Quick one: give measured inhibition at 10 µM for O=C1Nc2ccccc2/C1=C\c1ccc2[nH]nnc2c1 [Example A1]
13

---
Quick one: give measured inhibition at 10 µM for COc1ccc2c(c1)C(=Cc1ccc3c(-c4ccc(N5CCN(C)CC5)nc4)n[nH]c3c1)C(=O)N2 (mixture of isomers) [Example A97]
9
